Each record here notes measured EC50.
Assay System: Sphingosine 1-phosphate receptor 1 (Homo sapiens)
Sequence (P21453 whole entry): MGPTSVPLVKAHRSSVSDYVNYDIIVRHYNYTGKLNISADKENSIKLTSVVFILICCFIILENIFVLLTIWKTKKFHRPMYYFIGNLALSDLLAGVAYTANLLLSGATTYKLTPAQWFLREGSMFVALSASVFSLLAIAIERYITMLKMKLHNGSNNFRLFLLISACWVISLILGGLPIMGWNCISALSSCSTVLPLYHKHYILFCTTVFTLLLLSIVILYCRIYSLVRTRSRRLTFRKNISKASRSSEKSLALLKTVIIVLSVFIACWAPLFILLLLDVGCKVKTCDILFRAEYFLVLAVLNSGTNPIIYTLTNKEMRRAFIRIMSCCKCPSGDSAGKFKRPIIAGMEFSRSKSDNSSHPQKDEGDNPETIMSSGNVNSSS
Protocol: potentiators of S1P1 agonist response, dose response, cell-based, potentiator mode, 60K MLSMR set (AID 466)

# count of solved cases: 4
Measured on Sphingosine 1-phosphate receptor 1 (Homo sapiens), CC(C)N1C(=O)CCC1C(=O)N1CCC(Cc2ccccc2)CC1 (stereo not given) has a documented EC50 of > 95000 nM

Param item: O=C(C1CCCN1S(=O)(=O)c1cccc2cccnc12)N1CCN(c2ccccc2)CC1 (stereo not given) ; param system: Sphingosine 1-phosphate receptor 1 (Homo sapiens); output EC50: > 95000 nM

Lab entry: Sphingosine 1-phosphate receptor 1 (Homo sapiens) assay, compound "COc1ccc2c(c1)CCc1c(C(=O)Nc3ccc(OC)c(OC)c3)noc1-2" , EC50 = 2830 nM

Reported Sphingosine 1-phosphate receptor 1 (Homo sapiens) EC50 for item "Cc1ccc(-c2csc(N3CCC(NS(=O)(=O)c4ccc5c(c4)OCCO5)CC3)n2)cc1" was 1400 nM

Consider the record given below.
Tested on Sphingosine 1-phosphate receptor 1 (Homo sapiens), the item CCC(C)c1ccc2oc(-c3ccc(NC(=O)Cn4cnc5c(=O)n(C)c(=O)n(C)c54)cc3)nc2c1 (stereo not given) showed EC50 equal to 1590 nM
